Value source: the CheMixHub viscosity set

Conditions: 318.15 K; 101 kPa
viscosity by entry:
Report only the number, with the unit mPa·s understood.

Would you please look over these solved cases?
[
  {
    "Line notation": "CC(=O)[O-].CCCC[NH2+]CCO",
    "Unit tag": "mPa·s",
    "viscosity": 212.7
  },
  {
    "Line notation": "CCCCCl",
    "Unit tag": "mPa·s",
    "viscosity": 0.356
  },
  {
    "Line notation": "CCS(=O)CC",
    "Unit tag": "mPa·s",
    "viscosity": 1.59
  },
  {
    "Line notation": "CC(C)O",
    "Unit tag": "mPa·s",
    "viscosity": 1.228
  },
  {
    "Line notation": "CCCC[N+]1(C)CCCC1.N#C[S-]",
    "Unit tag": "mPa·s",
    "viscosity": 47.79
  }
]

Turning now to a further record.
Task item: Which measured viscosity value corresponds to C=C(C)C(=O)OCC ?
Reply: 0.4586
